B1: F1*; the commonest letter at each place (parent)
chain: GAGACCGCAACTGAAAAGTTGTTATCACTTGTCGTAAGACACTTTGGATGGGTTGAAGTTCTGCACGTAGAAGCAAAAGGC

Variants of: B1
Experimental Details: fraction ligated after 30 min (ligated reads / total reads); higher = more ligase activity
Condition: with F1*sub RNA substrate (template-directed ligation), 42 °C
Result Type: fraction ligated

According to the records, this variant A37T G47C displays fraction ligated of 0.178

According to the records, this variant A27C G46A displays fraction ligated of 0.82

According to the records, this variant A27C T44A displays fraction ligated of 0.79

According to the records, this variant T30C G50T displays fraction ligated of 0.452

According to the records, this variant T35C G46T displays fraction ligated of 0.778

According to the records, this variant T29C T32C displays fraction ligated of 0.764

According to the records, this variant C33A T35G displays fraction ligated of 0.866

According to the records, this variant T29G C40G displays fraction ligated of 0.83

According to the records, this variant C33G A39T displays fraction ligated of 0.851

According to the records, this variant C26T G47T displays fraction ligated of 0.182

According to the records, this variant G55A A56C displays fraction ligated of 0.729

According to the records, this variant A36C G46C displays fraction ligated of 0.784

According to the records, this variant T32C T35G displays fraction ligated of 0.808

According to the records, this variant A27G T30G displays fraction ligated of 0.846

According to the records, this variant A36T T45C displays fraction ligated of 0.783

According to the records, this variant T35A T49C displays fraction ligated of 0.768

According to the records, this variant C40A G47C displays fraction ligated of 0.25

According to the records, this variant T49C A56T displays fraction ligated of 0.0726

According to the records, this variant A27C A48T displays fraction ligated of 0.78

According to the records, this variant T30A T45G displays fraction ligated of 0.211

According to the records, this variant C26G T30G displays fraction ligated of 0.757

According to the records, this variant C33T T45C displays fraction ligated of 0.815

According to the records, this variant T25C T45G displays fraction ligated of 0.0359

According to the records, this variant T35A A41T displays fraction ligated of 0.831

According to the records, this variant T35C G50T displays fraction ligated of 0.753

According to the records, this variant T25A A57T displays fraction ligated of 0.252

According to the records, this variant T25G G47C displays fraction ligated of 0.242

According to the records, this variant G46A G50C displays fraction ligated of 0.0754

According to the records, this variant A24T T44A displays fraction ligated of 0.772

According to the records, this variant T45A G46C displays fraction ligated of 0.0374

According to the records, this variant A24G C42A displays fraction ligated of 0.796

According to the records, this variant A24G A39T displays fraction ligated of 0.664

According to the records, this variant T23C T29A displays fraction ligated of 0.82

According to the records, this variant A27C A36T displays fraction ligated of 0.817

According to the records, this variant T23A G50T displays fraction ligated of 0.699

According to the records, this variant A37C G55T displays fraction ligated of 0.845

According to the records, this variant A37C G46A displays fraction ligated of 0.78

According to the records, this variant T44A G50A displays fraction ligated of 0.643

According to the records, this variant G31C T49C displays fraction ligated of 0.0658

According to the records, this variant A48G A57C displays fraction ligated of 0.792

According to the records, this variant A27G A56T displays fraction ligated of 0.769

According to the records, this variant G34A C42A displays fraction ligated of 0.839

According to the records, this variant A27G T45G displays fraction ligated of 0.217

According to the records, this variant T29A T30A displays fraction ligated of 0.86

According to the records, this variant T29A G31C displays fraction ligated of 0.842

According to the records, this variant T29C C33G displays fraction ligated of 0.827
